Reported EC50 values for the following compounds.
test system: TC-71 (Ewing's sarcoma) cells; experiment: Cell proliferation assay, TC-71 (Alamar Blue); assay type: cell-based; settings: 72 h with compound, EC50 ranges as class symbols

smiles	system	value-observed
COCC(=O)N1CCC(c2ccc(Nc3ncc(Cl)c(NCc4cccc5c4C(C)(C)C(=O)N5)n3)c(C)c2)CC1	TC-71 (Ewing's sarcoma) cells	50 to 250 nM
COCCN1CCN(c2ccc(Nc3ncc(Br)c(NCc4cccc5c4C(C)(C)C(=O)N5)n3)c(OC)c2)CC1	TC-71 (Ewing's sarcoma) cells	< 50 nM
Cc1cc(C2CCN(C)CC2)ccc1Nc1ncc(C(F)(F)F)c(NCc2cccc3c2C(C)(C)C(=O)N3)n1	TC-71 (Ewing's sarcoma) cells	< 50 nM

--- query ---
// returns reported EC50 for input CC(C)(O)CN1CCC(c2ccc(Nc3ncc(Cl)c(NCc4cccc5c4C(C)(C)C(=O)N5)n3)c(OC(F)F)c2)CC1 < 50 nM

----------
target: cytoplasmic kinase domain of human IGF-1R (IGF-1R-GST) (Homo sapiens, UniProt P08069); construct: cytoplasmic kinase domain of human IGF-1R (amino acids 964-1370); GST (glutathione-S-transferase); assay: Insulin-like growth factor-1 receptor (IGF-1R) kinase assay (DELFIA); conditions: IGF-1R-GST kinase activity, read-out: IGF1R IC50
Sequence (P08069 964-1367 limits assumed): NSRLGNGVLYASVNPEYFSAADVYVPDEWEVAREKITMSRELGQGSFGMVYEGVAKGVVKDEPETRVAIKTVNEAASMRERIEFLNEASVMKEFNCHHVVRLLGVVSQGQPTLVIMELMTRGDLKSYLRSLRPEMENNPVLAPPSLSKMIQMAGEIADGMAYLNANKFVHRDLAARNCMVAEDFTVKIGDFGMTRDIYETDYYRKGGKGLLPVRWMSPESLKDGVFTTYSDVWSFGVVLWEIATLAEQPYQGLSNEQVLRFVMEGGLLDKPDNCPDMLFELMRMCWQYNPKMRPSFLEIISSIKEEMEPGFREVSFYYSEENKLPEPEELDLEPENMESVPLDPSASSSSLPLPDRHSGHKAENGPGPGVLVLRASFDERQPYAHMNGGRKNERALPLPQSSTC
experimental-endpoint: IC50 (nM)

Examples from the recorded data:
molecule	IC50, nM
Cc1cc(C2CCN(C)CC2)ccc1Nc1ncc(C(F)(F)F)c(NCc2cccc3c2C(C)(C)C(=O)N3)n1	0.8
COc1cc(N2CCC(N3CCN(C4CCOCC4)CC3)CC2)ccc1Nc1ncc(C(F)(F)F)c(NCc2cccc3c2CC(=O)N3)n1	13

I. COc1cc(N2CCN(C(=O)CN3CCN(C)CC3)CC2)ccc1Nc1ncc(Cl)c(NCc2cccc3c2C(C)(C)C(=O)N3)n1
II. CCN1CCC(NC(=O)c2ccc(Nc3ncc(C(F)(F)F)c(NCc4cccc5c4CC(=O)N5)n3)c(OC)c2)CC1
III. CC(C)(C)OC(=O)N1CC(C(=O)N2CCC(c3ccc(Nc4ncc(Cl)c(NCc5cccc6c5C(C)(C)C(=O)N6)n4)cc3)CC2)C1
IV. COCCN1CCN(c2ccc(Nc3ncc(Br)c(NCc4cccc5c4C(C)(C)C(=O)N5)n3)c(OC)c2)CC1
Number of molecules to sort: 4. Sort criterion: IC50, ascending. Show the ranking through the labels, in the order asked for. IV, I, II, III

a. Cc1cc(C2CCN(C(N)=O)CC2)ccc1Nc1ncc(Cl)c(NCc2cccc3c2C(C)(C)C(=O)N3)n1
b. COc1cc(N2CCN(C(=O)N(C)C)CC2)ccc1Nc1ncc(C(F)(F)F)c(NCc2cccc3c2CC(=O)N3)n1
c. COc1cc(N2CCN(C)[C@H](C)C2)ccc1Nc1ncc(C(F)(F)F)c(NCc2cccc3c2C(C)(C)C(=O)N3)n1
d. COc1cc(N2CC3CC2CN3C2COC2)ccc1Nc1ncc(C(F)(F)F)c(NCc2cccc3c2C(C)(C)C(=O)N3)n1 (stereo not shown)
e. COc1cc(N2CCN(C3CCOCC3)[C@H](C)C2)ccc1Nc1ncc(C(F)(F)F)c(NCc2cccc3c2C(C)(C)C(=O)N3)n1
Number of molecules to sort: 5. Sort criterion: IC50, ascending. Show the ranking through the labels, in the order asked for. c, e, a, d, b

I. COc1cc(N2CCC(N3CCCC3)CC2)ccc1Nc1ncc(C(F)(F)F)c(NCc2cccc3c2CC(=O)N3)n1
II. COCCN1CCC(N2CCN(c3ccc(Nc4ncc(C(F)(F)F)c(NCc5cccc6c5CC(=O)N6)n4)c(OC)c3)CC2)CC1
III. COc1cc(N2CCN(CC(C)(C)O)CC2)ccc1Nc1ncc(Br)c(NCc2cccc3c2C(C)(C)C(=O)N3)n1
IV. CC1(C)C(=O)Nc2cccc(CNc3nc(Nc4ccc(C5CCN(CCCF)CC5)cc4)ncc3Br)c21
Order these by IC50, descending, and give the full ranking. Show the ranking through the labels, in the order asked for. II, I, IV, III
(II: 15 nM, I: 5 nM, IV: 3 nM, III: 2 nM)

----------
target: cytoplasmic kinase domain of human IGF-1R (IGF-1R-GST) (Homo sapiens, UniProt P08069); construct: cytoplasmic kinase domain of human IGF-1R (amino acids 964-1370); GST (glutathione-S-transferase); experiment: Insulin-like growth factor-1 receptor (IGF-1R) kinase assay (DELFIA); settings: IGF-1R-GST kinase activity, read-out: IGF1R IC50
experimental-endpoint: IC50 (nM)

compound	experimental-endpoint	result-units	value-observed
Cc1cc(C2CCCN(CC(O)C(F)(F)F)C2)ccc1Nc1ncc(Cl)c(NCc2cccc3c2C(C)(C)C(=O)N3)n1 (racemic) [Example I-329]	IC50	nM	2
COc1cc(N2CCC(N3CC[C@@H](O)C3)CC2)ccc1Nc1ncc(C(F)(F)F)c(NCc2cccc3c2C(C)(C)C(=O)N3)n1 [Example I-174]	IC50	nM	0.81
COc1cc(N2CCC(N3CCC(OC)CC3)CC2)ccc1Nc1ncc(C(F)(F)F)c(NCc2cccc3c2CC(=O)N3)n1 [Example I-192]	IC50	nM	6
CC(C)(O)CN1CCC(c2ccc(Nc3ncc(Br)c(NCc4cccc5c4C(C)(C)C(=O)N5)n3)cc2)CC1 [Example I-210]	IC50	nM	0.47

I. COc1cc(N2CCN(C3CCN(C(C)=O)CC3)CC2)ccc1Nc1ncc(C(F)(F)F)c(NCc2cccc3c2CC(=O)N3)n1 [Example I-110]
II. COc1cc(N2CCC(N3CCN(C(C)=O)CC3)CC2)ccc1Nc1ncc(C(F)(F)F)c(NCc2cccc3c2CC(=O)N3)n1 [Example I-201]
Field: entry with larger IC50 (options I / II ). Your choice should be expressed through its label. II

----------
system: TC-71 (Ewing's sarcoma) cells; assay: Cell proliferation assay, TC-71 (Alamar Blue); format: cell-based; conditions: 72 h with compound, EC50 ranges as class symbols
pEC50: −log10 of the molar value.
Reported pEC50 values for the following compounds.

// returns reported pEC50 for input Cc1cc(N2CCN(C)CC2)ccc1Nc1ncc(C(F)(F)F)c(NCc2cccc3c2C(C)(C)C(=O)N3)n1 > 7.30

Another compound: Cc1cc(C2CCN(C(=O)CN(C)C)CC2)ccc1Nc1ncc(Br)c(NCc2cccc3c2C(C)(C)C(=O)N3)n1 > 7.30

Another compound: CNC(=O)CN1CCC(c2ccc(Nc3ncc(Cl)c(NCc4cccc5c4C(C)(C)C(=O)N5)n3)c(C)c2)CC1 > 7.30

Another compound: CC1(C)C(=O)Nc2cccc(CNc3nc(Nc4ccc(C5CCCN(CC(O)C(F)(F)F)C5)cc4)ncc3Br)c21 (racemic) 6.60 to 7.30

Another compound: Cc1cc([C@@H]2CCCN(CC(C)(C)O)C2)ccc1Nc1ncc(Br)c(NCc2cccc3c2C(C)(C)C(=O)N3)n1 > 7.30

Another compound: Cc1cc(C2CCCN(CCO)C2)ccc1Nc1ncc(Br)c(NCc2cccc3c2C(C)(C)C(=O)N3)n1 (racemic) > 7.30

Another compound: Cc1cc(C2CCN(C)CC2)ccc1Nc1ncc(Cl)c(NCc2cccc3c2C(C)(C)C(=O)N3)n1 > 7.30

Another compound: CC1(C)C(=O)Nc2cccc(CNc3nc(Nc4ccc(C5CCN(CCO)CC5)cc4)ncc3Br)c21 6.60 to 7.30

Another compound: COc1cc(C2CCN(CC#N)CC2)ccc1Nc1ncc(Cl)c(NCc2cccc3c2C(C)(C)C(=O)N3)n1 6.60 to 7.30

----------
target: cytoplasmic kinase domain of human IGF-1R (IGF-1R-GST) (Homo sapiens, UniProt P08069); construct: cytoplasmic kinase domain of human IGF-1R (amino acids 964-1370); GST (glutathione-S-transferase); test: Insulin-like growth factor-1 receptor (IGF-1R) kinase assay (DELFIA); details: IGF-1R-GST kinase activity, read-out: IGF1R IC50
experimental-endpoint: IC50 (nM)

Examples from the recorded data:
compound	result-units	value-observed
CCOc1cc(N2CCN(C(C)=O)CC2)ccc1Nc1ncc(C(F)(F)F)c(NCc2cccc3c2CC(=O)N3)n1	nM	30
CN1CCN(c2ccc(Nc3ncc(Br)c(NCc4cccc5c4CC(=O)N5)n3)cc2)CC1	nM	28
CCc1cc(C2CCCN(CCOC)C2)ccc1Nc1ncc(Cl)c(NCc2cccc3c2C(C)(C)C(=O)N3)n1 (racemic)	nM	6
COCCN1CCC(c2ccc(Nc3ncc(C(F)(F)F)c(NCc4cccc5c4C(C)(C)C(=O)N5)n3)c(C)c2)CC1	nM	0.8
CC1(C)C(=O)Nc2cccc(CNc3nc(Nc4ccc(C5CCN(C(=O)C6CNC6)CC5)cc4)ncc3Cl)c21	nM	7

a. Cc1cc(C2CCCNC2)ccc1Nc1ncc(Br)c(NCc2cccc3c2C(C)(C)C(=O)N3)n1 (racemic)
b. COc1cc(N2CCN(C(=O)CN3CCN(C)CC3)CC2)ccc1Nc1ncc(C(F)(F)F)c(NCc2cccc3c2C(C)(C)C(=O)N3)n1
c. CNC(=O)CN1CCC(c2ccc(Nc3ncc(Cl)c(NCc4cccc5c4C(C)(C)C(=O)N5)n3)c(C)c2)CC1
d. COc1cc(C2CCCN(CC(C)(C)O)C2)ccc1Nc1ncc(Cl)c(NCc2cccc3c2C(C)(C)C(=O)N3)n1 (racemic)
Order these by IC50, descending, and give the full ranking. Show the ranking through the labels, in the order asked for. b, c, d, a
(b: 9 nM, c: 2 nM, d: 1 nM, a: 0.69 nM)

I. COCCN1CCC(c2ccc(Nc3ncc(Br)c(NCc4cccc5c4C(C)(C)C(=O)N5)n3)c(C)c2)CC1
II. Cc1cc(C2CCN(C(=O)C(C)(C)O)CC2)ccc1Nc1ncc(Cl)c(NCc2cccc3c2C(C)(C)C(=O)N3)n1
Hi! Which is lower in terms of IC50, the first one I or the second one II ? Your choice should be expressed through its label. I
(I: 0.98 nM, II: 9 nM)
